Sourced from ChEMBL document CHEMBL1141675

Protocol Notes: Binding affinity to GABAA receptor
Design: unit not given here
I'd appreciate it if you could supply logKi values for the items below.
// return a plain number; no unit text

Look up logKi: O=c1cc(-c2cccc([N+](=O)[O-])c2)oc2ccc(F)cc12
-0.745

Dear colleague, I am looking for the recorded logKi of the following molecule: O=c1cc(-c2cccc(Br)c2)oc2ccc(O)cc12
0

Quick check: logKi of COc1ccc(-c2cc(=O)c3cc(Cl)ccc3o2)cc1 ?
0.097

Look up logKi for this molecule: O=c1cc(-c2ccc(F)cc2)oc2ccc(F)cc12
0.398

====

Protocol Notes: Binding affinity to GABAA receptor
Set-up: unit not given here
param class (str): category from logKi; see ranges Low (below -0.7), Medium (-0.7 to below 0.3), High (0.3 or more)

Exam item: assign O=c1cc(-c2ccccc2)oc2ccc(Cl)cc12 to the correct category.
Low

Bin this entry: O=c1cc(-c2cccc(F)c2)oc2ccc(F)cc12
Medium

Returns: class label. Input: Cc1ccc2oc(-c3cccc(Br)c3)cc(=O)c2c1
Low

Form: Item = O=c1cc(-c2cccc(O)c2)oc2ccc(F)cc12 ; Class = ?
High

Categorize the following entry: Cc1cccc(-c2cc(=O)c3cc(Br)ccc3o2)c1
Low

Class label required: COc1cccc(-c2cc(=O)c3cc(Cl)ccc3o2)c1
Medium

Consider COc1cc2oc(-c3ccc(O)c(O)c3)cc(=O)c2c(O)c1OC . To which logKi class does it belong?
High

Any idea which band O=c1cc(-c2ccccc2)oc2ccc(Br)cc12 is in?
Low

Record COc1ccc2oc(-c3ccccc3N)cc(=O)c2c1 — which class?
High

Please classify: O=c1cc(-c2cccc(Cl)c2)oc2ccccc12
Medium

Which logKi category applies to O=c1cc(-c2ccc(Br)cc2)oc2ccc([N+](=O)[O-])cc12 here?
Low

Could you place O=c1cc(-c2ccccc2)oc2c(I)c(O)c(I)c(O)c12 in its proper category? Many thanks.
Medium

Returns: class label. Input: COc1ccc2oc(-c3ccccc3)cc(=O)c2c1
Medium

Tag the class for O=c1cc(-c2ccccc2F)oc2ccc(Br)cc12
Medium

Kindly state the category for this molecule: Cc1cccc(-c2cc(=O)c3ccccc3o2)c1
High

Hey, which category is O=c1cc(-c2ccccc2)oc2cc(O)ccc12 in, do you know?
High

Class for COc1cc2oc(-c3ccc(O)cc3)cc(=O)c2c(O)c1OC ?
High

Band assignment needed for COc1cccc(-c2cc(=O)c3ccccc3o2)c1 please.
High

Using the reported logKi, which band applies to COc1c(O)cc2oc(-c3ccccc3O)cc(=O)c2c1O ?
Low

For the record O=c1cc(-c2cccc([N+](=O)[O-])c2)oc2ccc(Br)cc12 , report the class its logKi corresponds to.
Low

GET /class?item= O=c1cc(-c2ccccc2F)oc2cc(O)cc(O)c12
High

Field: class (logKi) — entry: O=c1c(O)c(-c2ccc(O)cc2)oc2cc(O)cc(O)c12
High

Note: place this molecule into its band. Item: O=c1cc(-c2ccc(F)cc2)oc2ccc(Br)cc12
Low

Lab log: O=c1cc(-c2ccccc2)oc2c(Br)c(O)c(Br)c(O)c12 — assign logKi category
Medium

Categorize the following entry: O=c1cc(-c2cccc(O)c2)oc2ccc(Cl)cc12
Medium

Kindly identify the class of O=c1cc(-c2ccccc2)oc2cc(O)c(O)c(O)c12 .
High

Category of Cc1ccc2oc(-c3cccc([N+](=O)[O-])c3)cc(=O)c2c1 , please.
Low

The entry to classify is COc1c(O)cc2oc(-c3ccccc3)cc(=O)c2c1O ; which class holds it?
Medium

Hello team, could you let me know which band the following molecule falls into: O=c1cc(-c2cccc(F)c2)oc2ccccc12
High

Sort O=c1cc(-c2cccc(Br)c2)oc2ccc(Br)cc12 into one of the categories.
Low

Exercise: read the entry O=c1cc(-c2ccccc2)oc2ccccc12 and state which class it falls under.
Medium

Band for COc1cccc(-c2cc(=O)c3cc(Br)ccc3o2)c1 ?
Medium

State the band of COc1c(O)c(OC)c2oc(-c3ccccc3O)cc(=O)c2c1O
Low

Dear colleague, I would appreciate it if you could identify the bin for O=c1cc(-c2cccc([N+](=O)[O-])c2)oc2ccc(Cl)cc12 and reply at your convenience.
Low

Dear colleague, I would appreciate it if you could identify the bin for O=c1cc(-c2ccc(F)cc2)oc2ccc(Cl)cc12 and reply at your convenience.
Low

Each molecule maps to one class by logKi. Which class for O=c1cc(-c2ccccc2Cl)oc2cc(O)cc(O)c12 ?
High

Dear colleague, I would appreciate it if you could identify the bin for COc1ccc(-c2cc(=O)c3cc(Br)ccc3o2)cc1 and reply at your convenience.
High

Hello team, could you let me know which band the following molecule falls into: O=c1cc(-c2ccccc2)oc2ccc(F)cc12
High

Class for O=c1cc(-c2ccccc2)oc2ccc(O)cc12 ?
High

Band of O=c1cc(-c2ccccc2O)oc2cc(O)ccc12 ?
Medium

Hello team, could you let me know which band the following molecule falls into: O=c1cc(-c2cccc(Br)c2)oc2ccc(F)cc12
Medium

Could you place O=c1cc(-c2cccc(F)c2)oc2ccc(Cl)cc12 in its proper category? Many thanks.
Low
